Test: Plasma and brain concentrations after MES testing (UHPLC-ESI-MS/MS);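 further: brain and plasma were sampled from mice right after the efficacy test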
Settings: CF-1, mouse, in vivo, po, 8 mg/kg, Concentration Brain, Compound A 8 mg/kg PO single dose, tissue collection 0.5 hr
measured-parameter: concentration at 0.5 h (nM)
One number for each entry, in nM.

Looking up "Cc1cc(N2CCc3cc(F)ccc3C2)cc(C)c1NC(=O)CC(C)(C)C" , I found its concentration at 0.5 h recorded as 1090

###

Experiment: Terminal plasma and brain concentrations in AC-MES studies (UHPLC-MS/MS)
Format: in vivo, mouse
Details: male, CF-1, mouse, in vivo, po, 5 mg/kg, Study 2A, Compound A 5 mg/kg PO, 0.5 h; read-out: Mean Brain
measured-parameter: concentration at 0.5 h (nM)
Answers are plain numbers, in nM.

Looking up "Cc1cc(N2CCc3cc(F)ccc3C2)cc(C)c1NC(=O)CC(C)(C)C" , I found its concentration at 0.5 h recorded as 400
